Molecular target: T1, hK1 (human tissue kallikrein 1), recombinant (human, UniProt P06870 25-262)
T1 construct: Expressed in P. pastoris from KLK1 cDNA and purified; enzymatically active; also called KLK1; Recombinant (Pichia) Kallikrein
Assay: SPR
Quantity: koff (s⁻¹)
Use s⁻¹ as the unit, but write only the number.

{"Binder": "M0137-E01 (Fab, V domains shown, also called M137-E01) VH: EVQLLESGGGLVQPGGSLRLSCAASGFTFSRYSMTWVRQAPGKGLEWVSSIYPSGGKTTYADSVKGRFTISRDNSKNTLYLQMNSLRAEDTAVYYCASMVAPYYYDSSGYPPAEYFQHWGQGTLVTVSS VL: AQSELTQPPSASGTPGQRVTISCSGTNSNIGSNSVFWYQQLSGTAAPKVLILRNSQRPSGVSDRFSGSKSGTSASLAISGLRSEDEADYYCATWDDSLRSPVFGGGTKLTVLG", "Reported measurement": 0.000158}

Now take the following binder into account.
Q: Return value of koff for input M0103-H07 (Fab, V domains shown) VH: EVQLLESGGGLVQPGGSLRLSCAASGFTFSHYGMYWVRQAPGKGLEWVSSIYPSGGWTNYADSVKGRFTISRDNSKNTLYLQMNSLRAEDTAVYYCARRGSWGAFDIWGQGTMVTVSS VL: DIQMTQSPSSLSASVGDRVAITCRASQSIDTYLNWYQQKPGKAPKLLIYAASKLEDGVPSRFSGSGTGTDFTLTIRSLQPEDFATYYCQPYNTYPITFGQGTRLEIKR , no commentary.
Result: 0.0086

Data provenance is patent US7329737.
